Tgt: HLA-B*44:03
Run Description: IEDB peptide-MHC binding, purified MHC/competitive/fluorescence; bounds were set here for any values at or beyond the usual limits of such assays
Settings: source organism: Monodelphis domestica
pIC50: −log10 of the molar value.
Endpoint Name: pIC50

[Q] Reported pIC50, sequence LEYFQFVKKLL : ____
[A] ≤ 4.70

====

Tgt: HLA-A*24:02
Run Description: IEDB peptide-MHC binding, purified MHC/competitive/radioactivity; filed as Kd, often an IC50 or EC50 that approximates it; bounds were set here for any values at or beyond the usual limits of such assays
Settings: source organism: Mammarenavirus whitewaterense
Endpoint Name: Kd (nM)
// return numeric value only (unit: nM, not printed)

[Q] Item: KFWYVNHTGF Test system: HLA-A*24:02 Read-out: Kd Value: ?
[A] 604

====

Tgt: HLA-A*03:01
Run Description: IEDB peptide-MHC binding, purified MHC/direct/fluorescence; filed as Kd, often an IC50 or EC50 that approximates it; bounds were set here for any values at or beyond the usual limits of such assays
Settings: source organism: Influenza A virus (A/swine/Italy/809/1989(H3N2))
pKd: −log10 of the molar value.
Endpoint Name: pKd

[Q] Reported pKd, sequence EEIRRIWRQ : ____
[A] ≤ 4.70

====

Tgt: HLA-B*57:01
Run Description: IEDB peptide-MHC binding, purified MHC/direct/fluorescence; filed as Kd, often an IC50 or EC50 that approximates it; bounds were set here for any values at or beyond the usual limits of such assays
Settings: source organism: Lake Victoria marburgvirus - Popp
Endpoint Name: Kd

[Q] Reported Kd, sequence GELRKAICL : ____
[A] ≥ 20 µM

====

Tgt: HLA-B*57:01
Run Description: IEDB peptide-MHC binding, purified MHC/competitive/fluorescence; filed as Kd, often an IC50 or EC50 that approximates it; bounds were set here for any values at or beyond the usual limits of such assays
Settings: source organism: Vibrio antiquarius
pKd: −log10 of the molar value.
Endpoint Name: pKd

[Q] Reported pKd, sequence FDLFGITLY : ____
[A] ≤ 4.70

====

Tgt: HLA-B*08:01
Run Description: IEDB peptide-MHC binding, purified MHC/competitive/radioactivity; filed as Kd, often an IC50 or EC50 that approximates it; bounds were set here for any values at or beyond the usual limits of such assays
Settings: source organism: Dengue virus 3 Singapore/8120/1995
Endpoint Name: pKd
# pKd: negative log10 of molar concentration; output just the value

[Q] Reported pKd, sequence QLAKRFSRG : ____
[A] 5.89

====

Tgt: HLA-A*29:02
Run Description: IEDB peptide-MHC binding, purified MHC/competitive/fluorescence; filed as Kd, often an IC50 or EC50 that approximates it; bounds were set here for any values at or beyond the usual limits of such assays
Settings: source organism: Homo sapiens
pKd: −log10 of the molar value.
Endpoint Name: pKd

[Q] Reported pKd, sequence VVPSYIPLV : ____
[A] ≤ 4.70

====

Tgt: HLA-A*03:01
Run Description: IEDB peptide-MHC binding, purified MHC/competitive/radioactivity; filed as Kd, often an IC50 or EC50 that approximates it; bounds were set here for any values at or beyond the usual limits of such assays
Settings: source organism: Dengue virus 2 Jamaica/1409/1983
Endpoint Name: pKd
# pKd: negative log10 of molar concentration; output just the value

[Q] Reported pKd, sequence RVSTVQQLTK : ____
[A] 7.76

[Q] What about SLRPQPTELK ?
[A] 8.52

====

Tgt: HLA-B*58:01
Run Description: IEDB peptide-MHC binding, purified MHC/direct/fluorescence; filed as Kd, often an IC50 or EC50 that approximates it; bounds were set here for any values at or beyond the usual limits of such assays
Settings: source organism: Rickettsia prowazekii
Endpoint Name: pKd
# pKd: negative log10 of molar concentration; output just the value

[Q] Reported pKd, sequence QFAGGSFDF : ____
[A] 7.38

====

Tgt: HLA-A*03:01
Run Description: IEDB peptide-MHC binding, purified MHC/competitive/radioactivity; filed as Kd, often an IC50 or EC50 that approximates it; bounds were set here for any values at or beyond the usual limits of such assays
Settings: source organism: Vaccinia virus WR
Endpoint Name: pKd
# pKd: negative log10 of molar concentration; output just the value

[Q] Reported pKd, sequence KSNILMWNK : ____
[A] 7.56

[Q] What about VTFRERYSY ?
[A] 7.25

[Q] What about TLDDLAIKQY ?
[A] 4.74

====

Tgt: HLA-A*01:01
Run Description: IEDB peptide-MHC binding, purified MHC/competitive/fluorescence; filed as Kd, often an IC50 or EC50 that approximates it; bounds were set here for any values at or beyond the usual limits of such assays
Settings: source organism: Lyssavirus rabies
pKd: −log10 of the molar value.
Endpoint Name: pKd

[Q] Reported pKd, sequence YLDNVGVHI : ____
[A] ≤ 5.30

====

Tgt: HLA-A*02:06
Run Description: IEDB peptide-MHC binding, purified MHC/competitive/radioactivity; filed as Kd, often an IC50 or EC50 that approximates it; bounds were set here for any values at or beyond the usual limits of such assays
Settings: source organism: Human immunodeficiency virus type 1 (CLONE 12)
Endpoint Name: Kd (nM)
// return numeric value only (unit: nM, not printed)

[Q] Item: RILQQLLFI Test system: HLA-A*02:06 Read-out: Kd Value: ?
[A] 21.6

====

Tgt: HLA-A*02:01
Run Description: IEDB peptide-MHC binding, purified MHC/competitive/radioactivity; filed as Kd, often an IC50 or EC50 that approximates it; bounds were set here for any values at or beyond the usual limits of such assays
Settings: source organism: Variola virus
Endpoint Name: Kd (µM)
// return numeric value only (unit: µM, not printed)

[Q] Reported Kd, sequence MILVPLITV : ____
[A] 0.0146

====

Tgt: HLA-A*26:02
Run Description: IEDB peptide-MHC binding, purified MHC/competitive/fluorescence; filed as Kd, often an IC50 or EC50 that approximates it; bounds were set here for any values at or beyond the usual limits of such assays
Settings: source organism: Mycobacterium leprae
Endpoint Name: Kd

[Q] Reported Kd, sequence TVGYMYIMK : ____
[A] ≥ 20 µM

====

Tgt: HLA-B*27:03
Run Description: IEDB peptide-MHC binding, purified MHC/competitive/fluorescence; filed as Kd, often an IC50 or EC50 that approximates it; bounds were set here for any values at or beyond the usual limits of such assays
Settings: source organism: Vibrio cholerae 2740-80
So I've got a bunch of sequences here, and I need their Kd values.

[Q] Item: KQLPPLAAW Test system: HLA-B*27:03 Read-out: Kd Value: ?
[A] ≥ 20 µM

[Q] What about IFIRTIYYH ?
[A] ≥ 20 µM

====

So I've got a bunch of sequences here, and I need their pKd values.
Tgt: HLA-A*31:01
Run Description: IEDB peptide-MHC binding, purified MHC/direct/fluorescence; filed as Kd, often an IC50 or EC50 that approximates it; bounds were set here for any values at or beyond the usual limits of such assays
Settings: source organism: Mycobacterium tuberculosis
pKd: −log10 of the molar value.

[Q] Reported pKd, sequence SPRSRNRSF : ____
[A] ≤ 4.70

[Q] What about LPAEVRAAF ?
[A] ≤ 4.70

[Q] What about APAKKAAPA ?
[A] ≤ 4.70

[Q] What about QVFKGVVIR ?
[A] 7.00

====

Tgt: HLA-B*40:02
Run Description: IEDB peptide-MHC binding, purified MHC/competitive/radioactivity; filed as Kd, often an IC50 or EC50 that approximates it; bounds were set here for any values at or beyond the usual limits of such assays
Settings: source organism: Lymphocytic choriomeningitis virus (strain Armstrong)
Endpoint Name: Kd (µM)
// return numeric value only (unit: µM, not printed)

[Q] Item: AEALGPFQS Test system: HLA-B*40:02 Read-out: Kd Value: ?
[A] 4.96

====

Tgt: HLA-A*02:03
Run Description: IEDB peptide-MHC binding, purified MHC/direct/fluorescence; filed as Kd, often an IC50 or EC50 that approximates it; bounds were set here for any values at or beyond the usual limits of such assays
Settings: source organism: Clostridium botulinum NCTC 2916
Endpoint Name: Kd (nM)
// return numeric value only (unit: nM, not printed)

[Q] Reported Kd, sequence RVYINVVVK : ____
[A] 599

====

Tgt: HLA-A*31:01
Run Description: IEDB peptide-MHC binding, purified MHC/direct/fluorescence; filed as Kd, often an IC50 or EC50 that approximates it; bounds were set here for any values at or beyond the usual limits of such assays
Settings: source organism: Salmonella enterica
Endpoint Name: Kd

[Q] Reported Kd, sequence RPQLGVGDV : ____
[A] ≥ 20 µM

====

Tgt: HLA-B*45:01
Run Description: IEDB peptide-MHC binding, purified MHC/competitive/radioactivity; filed as Kd, often an IC50 or EC50 that approximates it; bounds were set here for any values at or beyond the usual limits of such assays
Settings: source organism: Mammarenavirus juninense
Endpoint Name: Kd
Please give the number followed by its unit.

[Q] Item: SEILRTLGF Test system: HLA-B*45:01 Read-out: Kd Value: ?
[A] 7.59 µM
